# TARGET ENTITY: High affinity nerve growth factor receptor (Homo sapiens, UniProt P04629)
# Sequence (P04629 whole entry, the tested form may be a part): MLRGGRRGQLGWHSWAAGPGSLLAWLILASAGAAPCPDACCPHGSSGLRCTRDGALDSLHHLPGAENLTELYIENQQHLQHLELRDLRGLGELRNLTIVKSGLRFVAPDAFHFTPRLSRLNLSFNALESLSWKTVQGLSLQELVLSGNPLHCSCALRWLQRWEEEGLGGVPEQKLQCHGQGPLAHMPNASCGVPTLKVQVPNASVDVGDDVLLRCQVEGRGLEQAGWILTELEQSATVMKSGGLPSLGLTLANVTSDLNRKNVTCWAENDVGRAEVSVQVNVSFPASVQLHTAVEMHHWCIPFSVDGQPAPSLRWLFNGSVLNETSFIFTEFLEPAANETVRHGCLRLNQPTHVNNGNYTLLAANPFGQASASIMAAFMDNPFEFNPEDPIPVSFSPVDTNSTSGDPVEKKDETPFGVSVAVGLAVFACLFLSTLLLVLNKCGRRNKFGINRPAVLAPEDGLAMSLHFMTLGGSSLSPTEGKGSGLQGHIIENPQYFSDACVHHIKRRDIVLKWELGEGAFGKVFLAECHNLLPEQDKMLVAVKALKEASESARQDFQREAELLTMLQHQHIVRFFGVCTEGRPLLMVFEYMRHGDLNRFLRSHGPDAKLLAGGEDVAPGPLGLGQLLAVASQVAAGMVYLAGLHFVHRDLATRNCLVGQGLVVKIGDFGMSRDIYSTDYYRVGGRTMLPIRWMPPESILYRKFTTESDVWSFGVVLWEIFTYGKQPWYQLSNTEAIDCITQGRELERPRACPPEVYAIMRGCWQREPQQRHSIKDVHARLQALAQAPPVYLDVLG
# METHOD DESCRIPTION: Inhibition of human intracellular domain of TRKA expressed in Sf9 cells incubated for 1 hr by HTRF method
READOUT: IC50 (nM)
Numbers only, in nM.

I'd like to know its IC50. The compound in question is CN1CCN(c2ccc(C(=O)Nc3n[nH]c4c3CN(Cc3cc(F)cc(F)c3)C4(C)C)cc2)CC1
28

----------
# METHOD DESCRIPTION: Inhibition of […] N-terminal 6His-tagged TRKC G696A mutant (506 to 829 residues) (unknown origin) expressed in Escherichia coli measured after 60 mins by liquid scintillation method
# Design: species or system Homo sapiens
READOUT: IC50
Remember to follow the number with its unit.

I'd like to know its IC50. The molecule in question is C[C@@H]1CCc2ncc(F)cc2[C@H]2CCCN2c2ccn3ncc(c3n2)C(=O)N1 [SELITRECTINIB]
2.5 nM

meta.source: ChEMBL document CHEMBL5634073
